Tested on: 966289-007-R4-J1-PDC complex spheroid viability
Test: Anticancer human tumor 966289-007-R4-J1-PDC patient-derived pancreatic adenocarcinoma cell line growth inhibition [RAS]
Details: second compound 0.003 µM; first compound 0.316 µM; stronger effect = lower value
RECORDED METRIC: viability, T/C (%)
Report as a plain number; the unit % is understood.

COMPOUND	UNIT	viability, T/C
CC(Nc1ccc2c(c1)OCCn1cc(N3C(=O)OCC3C(F)F)nc1-2)C(N)=O (centres undefined) + CCn1c(-c2cc(N3CCN(C)CC3)cnc2C(C)OC)c2c3cc(ccc31)-c1csc(n1)CC(NC(=O)C1CC1C)C(=O)N1CCCC(N1)C(=O)OCC(C)(C)C2	%	108
NC1c2ccccc2OC12CCN(c1cnc3c(N4CCCc5ncccc54)n[nH]c3n1)CC2 (centres undefined) + CCn1c(-c2cccnc2C(C)OC)c2c3cc(ccc31)N1CCOC(CC(NC(=O)C(C(C)C)N(C)C(=O)C3(F)CCN(C(=O)C#CC(C)(C)N(C)C)CC3)C(=O)N3CCCC(N3)C(=O)OCC(C)(C)C2)C1	%	102
O=C(c1ccc(F)c(F)c1Nc1ccc(I)cc1F)N1CC(O)([C@@H]2CCCCN2)C1 + CCn1c(-c2cccnc2C(C)OC)c2c3cc(ccc31)N1CCOC(CC(NC(=O)C(C(C)C)N(C)C(=O)C3(F)CCN(C(=O)C#CC(C)(C)N(C)C)CC3)C(=O)N3CCCC(N3)C(=O)OCC(C)(C)C2)C1	%	86.1

Tell me reported viability, T/C for CC(C)NCC(C(=O)N1CCN(c2ncnc3c2C(C)CC3O)CC1)c1ccc(Cl)cc1 (centres undefined) + CCn1c(-c2cc(N3CCN(C)CC3)cnc2C(C)OC)c2c3cc(ccc31)-c1csc(n1)CC(NC(=O)C1CC1C)C(=O)N1CCCC(N1)C(=O)OCC(C)(C)C2 , tested with 966289-007-R4-J1-PDC complex spheroid viability.
91.8

---

System: 966289-007-R4-J1-PDC complex spheroid viability
Assay: Anticancer human tumor 966289-007-R4-J1-PDC cell line growth inhibition [RAS]
Settings: second compound 0.01 µM; first compound 1 µM; stronger effect = lower value
Recorded viability, T/C values for a group of compounds are listed next.
# value in %; strip the unit string

Record request: viability, T/C value, item C[C@@H](NC(=O)c1ncnc(N)c1Cl)c1ncc(C(=O)Nc2cc(C(F)(F)F)c(Cl)cn2)s1 + C=CC(=O)N1CCN(c2nc(OCC3CCCN3C)nc3c(F)c(-c4nc(N)cc(C)c4C(F)(F)F)c(Cl)cc23)C(C)C1
109

Moving on to NC1c2ccccc2OC12CCN(c1cnc3c(N4CCCc5ncccc54)n[nH]c3n1)CC2 (stereo not drawn) + C=CC(=O)N1CCN(c2nc(OCC3CCCN3C)nc3c(F)c(-c4nc(N)cc(C)c4C(F)(F)F)c(Cl)cc23)C(C)C1
122

Again, but for CCC(CC)c1cc(NC2CCC(N)C2)n2nccc2n1 (stereo not drawn) + C=CC(=O)N1CCN(c2nc(OCC3CCCN3C)nc3c(F)c(-c4nc(N)cc(C)c4C(F)(F)F)c(Cl)cc23)C(C)C1
114

---

Tested on: 966289-007-R4-J1-PDC complex spheroid viability
Assay: Anticancer human tumor 966289-007-R4-J1-PDC cell line growth inhibition [RAS];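 further: spheroids exposed to agents for one week before readout; percent viability relative to DMSO vehicle control wells as 100%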
Details: second compound 0.3 µM; first compound 1 µM; stronger effect = lower value
# maps each entry to its viability, T/C
The response must be a number in % with no trailing unit.

Could you share which viability, T/C value was measured for C=CC(=O)N1CCN(c2nc(OCC3CCCN3C)nc3c(F)c(-c4nc(N)cc(C)c4C(F)(F)F)c(Cl)cc23)C(C)C1 (centres undefined) + CCn1c(-c2cccnc2C(C)OC)c2c3cc(ccc31)N1CCOC(CC(NC(=O)C(C(C)C)N(C)C(=O)C3(F)CCN(C(=O)C#CC(C)(C)N(C)C)CC3)C(=O)N3CCCC(N3)C(=O)OCC(C)(C)C2)C1 ?
91.6

Follow-up item: C=CC(=O)Nc1cc(Nc2nccc(-c3cn(C)c4ccccc34)n2)c(OC)cc1N(C)CCN(C)C + CCn1c(-c2cc(N3CCN(C)CC3)cnc2C(C)OC)c2c3cc(ccc31)-c1csc(n1)CC(NC(=O)C1CC1C)C(=O)N1CCCC(N1)C(=O)OCC(C)(C)C2
103

Also C[C@@H](NC(=O)c1ncnc(N)c1Cl)c1ncc(C(=O)Nc2cc(C(F)(F)F)c(Cl)cn2)s1 + CCn1c(-c2cc(N3CCN(C)CC3)cnc2C(C)OC)c2c3cc(ccc31)-c1csc(n1)CC(NC(=O)C1CC1C)C(=O)N1CCCC(N1)C(=O)OCC(C)(C)C2 ?
141

And for O=C(c1ccc(F)c(F)c1Nc1ccc(I)cc1F)N1CC(O)([C@@H]2CCCCN2)C1 + CCn1c(-c2cccnc2C(C)OC)c2c3cc(ccc31)N1CCOC(CC(NC(=O)C(C(C)C)N(C)C(=O)C3(F)CCN(C(=O)C#CC(C)(C)N(C)C)CC3)C(=O)N3CCCC(N3)C(=O)OCC(C)(C)C2)C1 ?
42.8

---

This listing pairs molecules with measured viability, T/C.
System: 966289-007-R4-J1-PDC complex spheroid viability
Assay: Anticancer human tumor 966289-007-R4-J1-PDC cell line growth inhibition [RAS];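 further: spheroids exposed to agents for one week before readout; percent viability relative to DMSO vehicle control wells as 100%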
Conditions: second compound 0.0949 µM; first compound 0.0949 µM; stronger effect = lower value
Number in %, nothing else.

MOLECULE	viability, T/C, %
CCc1c2c(nc3ccc(O)cc13)-c1cc3c(c(=O)n1C2)COC(=O)[C@]3(O)CC + CCn1c(-c2cccnc2C(C)OC)c2c3cc(ccc31)N1CCOC(CC(NC(=O)C(C(C)C)N(C)C(=O)C3(F)CCN(C(=O)C#CC(C)(C)N(C)C)CC3)C(=O)N3CCCC(N3)C(=O)OCC(C)(C)C2)C1	0.56
CC1(C)CCC(Nc2ncc(C(F)(F)F)c(-c3c[nH]c4c(P(C)(C)=O)c(C#N)ccc34)n2)CN1 (centres undefined) + CCn1c(-c2cc(N3CCN(C)CC3)cnc2C(C)OC)c2c3cc(ccc31)-c1csc(n1)CC(NC(=O)C1CC1C)C(=O)N1CCCC(N1)C(=O)OCC(C)(C)C2	13.7
CC1(C)CCC(Nc2ncc(C(F)(F)F)c(-c3c[nH]c4c(P(C)(C)=O)c(C#N)ccc34)n2)CN1 (centres undefined) + CCn1c(-c2cccnc2C(C)OC)c2c3cc(ccc31)N1CCOC(CC(NC(=O)C(C(C)C)N(C)C(=O)C3(F)CCN(C(=O)C#CC(C)(C)N(C)C)CC3)C(=O)N3CCCC(N3)C(=O)OCC(C)(C)C2)C1	3.17

Consider the additional molecule presented here.
What does the record list as viability, T/C for CCc1c2c(nc3ccc(O)cc13)-c1cc3c(c(=O)n1C2)COC(=O)[C@]3(O)CC + CCn1c(-c2cc(N3CCN(C)CC3)cnc2C(C)OC)c2c3cc(ccc31)-c1csc(n1)CC(NC(=O)C1CC1C)C(=O)N1CCCC(N1)C(=O)OCC(C)(C)C2 ?
0.7

---

Tested on: 966289-007-R4-J1-PDC complex spheroid viability
Experiment: Anticancer human tumor 966289-007-R4-J1-PDC cell line growth inhibition [RAS];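 further: spheroids exposed to agents for one week before readout; percent viability relative to DMSO vehicle control wells as 100%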
Settings: second compound 0.3 µM; first compound 1 µM; stronger effect = lower value
RECORDED METRIC: viability, T/C (%)
All answers are understood in %, so give the number only.

Any idea what its viability, T/C is? The compound is NC1c2ccccc2OC12CCN(c1cnc3c(N4CCCc5ncccc54)n[nH]c3n1)CC2 (configuration not stated) + CCn1c(-c2cccnc2C(C)OC)c2c3cc(ccc31)N1CCOC(CC(NC(=O)C(C(C)C)N(C)C(=O)C3(F)CCN(C(=O)C#CC(C)(C)N(C)C)CC3)C(=O)N3CCCC(N3)C(=O)OCC(C)(C)C2)C1
103

Next record, please: C=CC(=O)N1CCN(c2nc(OCC3CCCN3C)nc3c(F)c(-c4nc(N)cc(C)c4C(F)(F)F)c(Cl)cc23)C(C)C1 (configuration not stated) + CCn1c(-c2cc(N3CCN(C)CC3)cnc2C(C)OC)c2c3cc(ccc31)-c1csc(n1)CC(NC(=O)C1CC1C)C(=O)N1CCCC(N1)C(=O)OCC(C)(C)C2
106

---

System: 966289-007-R4-J1-PDC complex spheroid viability
Assay: Anticancer human tumor 966289-007-R4-J1-PDC cell line growth inhibition [RAS]; active = viability on the fitted dose curve at most 10% of control; inactive = the rest;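 further: spheroids exposed to agents for one week before readout; percent viability relative to DMSO vehicle control wells as 100%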
Conditions: second compound 0.03 µM; first compound 0.1 µM
The reply should name one outcome from label 1 for active, label 0 for inactive

Answered cases to consult:
COMPOUND	CATEGORY LABEL
C=CC(=O)N1CCN(c2nc(OCC3CCCN3C)nc3c(F)c(-c4nc(N)cc(C)c4C(F)(F)F)c(Cl)cc23)C(C)C1 (stereo unspecified) + CCn1c(-c2cc(N3CCN(C)CC3)cnc2C(C)OC)c2c3cc(ccc31)-c1csc(n1)CC(NC(=O)C1CC1C)C(=O)N1CCCC(N1)C(=O)OCC(C)(C)C2	label 0
CC(=O)OC12COC1CC(O)C1(C)C(=O)C(O)C3=C(C)C(OC(=O)C(O)C(NC(=O)OC(C)(C)C)c4ccccc4)CC(O)(C(OC(=O)c4ccccc4)C21)C3(C)C (stereo unspecified) + CCn1c(-c2cc(N3CCN(C)CC3)cnc2C(C)OC)c2c3cc(ccc31)-c1csc(n1)CC(NC(=O)C1CC1C)C(=O)N1CCCC(N1)C(=O)OCC(C)(C)C2	label 1
NC1c2ccccc2OC12CCN(c1cnc3c(N4CCCc5ncccc54)n[nH]c3n1)CC2 (stereo unspecified) + CCn1c(-c2cc(N3CCN(C)CC3)cnc2C(C)OC)c2c3cc(ccc31)-c1csc(n1)CC(NC(=O)C1CC1C)C(=O)N1CCCC(N1)C(=O)OCC(C)(C)C2	label 0
CCN1CCN(Cc2ccc(Nc3ncc(F)c(-c4cc(F)c5nc(C)n(C(C)C)c5c4)n3)nc2)CC1 + CCn1c(-c2cccnc2C(C)OC)c2c3cc(ccc31)N1CCOC(CC(NC(=O)C(C(C)C)N(C)C(=O)C3(F)CCN(C(=O)C#CC(C)(C)N(C)C)CC3)C(=O)N3CCCC(N3)C(=O)OCC(C)(C)C2)C1	label 0

In this assay, the call recorded for Cc1nc(N2CCC3(CC2)COC(C)C3N)c(CO)nc1Sc1ccnc(N)c1Cl (stereo unspecified) + CCn1c(-c2cc(N3CCN(C)CC3)cnc2C(C)OC)c2c3cc(ccc31)-c1csc(n1)CC(NC(=O)C1CC1C)C(=O)N1CCCC(N1)C(=O)OCC(C)(C)C2 was what?
label 0

Record: CC(C)n1nc(-c2ccc3oc(N)nc3c2)c2c(N)ncnc21 + CCn1c(-c2cc(N3CCN(C)CC3)cnc2C(C)OC)c2c3cc(ccc31)-c1csc(n1)CC(NC(=O)C1CC1C)C(=O)N1CCCC(N1)C(=O)OCC(C)(C)C2
label 0

# iterate: CC(=O)OC12COC1CC(O)C1(C)C(=O)C(O)C3=C(C)C(OC(=O)C(O)C(NC(=O)OC(C)(C)C)c4ccccc4)CC(O)(C(OC(=O)c4ccccc4)C21)C3(C)C (stereo unspecified) + CCn1c(-c2cccnc2C(C)OC)c2c3cc(ccc31)N1CCOC(CC(NC(=O)C(C(C)C)N(C)C(=O)C3(F)CCN(C(=O)C#CC(C)(C)N(C)C)CC3)C(=O)N3CCCC(N3)C(=O)OCC(C)(C)C2)C1
label 1

Again, but for O=C(c1ccc(F)c(F)c1Nc1ccc(I)cc1F)N1CC(O)([C@@H]2CCCCN2)C1 + CCn1c(-c2cccnc2C(C)OC)c2c3cc(ccc31)N1CCOC(CC(NC(=O)C(C(C)C)N(C)C(=O)C3(F)CCN(C(=O)C#CC(C)(C)N(C)C)CC3)C(=O)N3CCCC(N3)C(=O)OCC(C)(C)C2)C1
label 0

Request: CC(C)n1nc(-c2ccc3oc(N)nc3c2)c2c(N)ncnc21 + CCn1c(-c2cccnc2C(C)OC)c2c3cc(ccc31)N1CCOC(CC(NC(=O)C(C(C)C)N(C)C(=O)C3(F)CCN(C(=O)C#CC(C)(C)N(C)C)CC3)C(=O)N3CCCC(N3)C(=O)OCC(C)(C)C2)C1
label 0

Next compound: CCC(CC)c1cc(NC2CCC(N)C2)n2nccc2n1 (stereo unspecified) + CCn1c(-c2cccnc2C(C)OC)c2c3cc(ccc31)N1CCOC(CC(NC(=O)C(C(C)C)N(C)C(=O)C3(F)CCN(C(=O)C#CC(C)(C)N(C)C)CC3)C(=O)N3CCCC(N3)C(=O)OCC(C)(C)C2)C1
label 0

Next: C[C@@H](NC(=O)c1ncnc(N)c1Cl)c1ncc(C(=O)Nc2cc(C(F)(F)F)c(Cl)cn2)s1 + CCn1c(-c2cccnc2C(C)OC)c2c3cc(ccc31)N1CCOC(CC(NC(=O)C(C(C)C)N(C)C(=O)C3(F)CCN(C(=O)C#CC(C)(C)N(C)C)CC3)C(=O)N3CCCC(N3)C(=O)OCC(C)(C)C2)C1
label 0

Try C=CC(=O)N1CCN(c2nc(OCC3CCCN3C)nc3c(F)c(-c4nc(N)cc(C)c4C(F)(F)F)c(Cl)cc23)C(C)C1 (stereo unspecified) + CCn1c(-c2cccnc2C(C)OC)c2c3cc(ccc31)N1CCOC(CC(NC(=O)C(C(C)C)N(C)C(=O)C3(F)CCN(C(=O)C#CC(C)(C)N(C)C)CC3)C(=O)N3CCCC(N3)C(=O)OCC(C)(C)C2)C1 next.
label 0

Next compound up: CC(Nc1ccc2c(c1)OCCn1cc(N3C(=O)OCC3C(F)F)nc1-2)C(N)=O (stereo unspecified) + CCn1c(-c2cccnc2C(C)OC)c2c3cc(ccc31)N1CCOC(CC(NC(=O)C(C(C)C)N(C)C(=O)C3(F)CCN(C(=O)C#CC(C)(C)N(C)C)CC3)C(=O)N3CCCC(N3)C(=O)OCC(C)(C)C2)C1
label 0

Do the same for CC1(O)CCCC1n1c(=O)c(C(F)F)cc2cnc(NC3CCN(S(C)(=O)=O)CC3)nc21 (stereo unspecified) + CCn1c(-c2cc(N3CCN(C)CC3)cnc2C(C)OC)c2c3cc(ccc31)-c1csc(n1)CC(NC(=O)C1CC1C)C(=O)N1CCCC(N1)C(=O)OCC(C)(C)C2 please
label 0

And what about the compound Nc1ccn(C2OC(CO)C(O)C2(F)F)c(=O)n1 (stereo unspecified) + CCn1c(-c2cc(N3CCN(C)CC3)cnc2C(C)OC)c2c3cc(ccc31)-c1csc(n1)CC(NC(=O)C1CC1C)C(=O)N1CCCC(N1)C(=O)OCC(C)(C)C2 ?
label 1

Now the compound C=CC(=O)Nc1cc(Nc2nccc(-c3cn(C)c4ccccc34)n2)c(OC)cc1N(C)CCN(C)C + CCn1c(-c2cc(N3CCN(C)CC3)cnc2C(C)OC)c2c3cc(ccc31)-c1csc(n1)CC(NC(=O)C1CC1C)C(=O)N1CCCC(N1)C(=O)OCC(C)(C)C2
label 0
